Attribution: patent US20210079074A1

Readings of OD450 for the listed binders
# System name: T1, recombinant MS4A4A soluble polypeptide JS1
# T1 construct: also called JS1.His; loop grafted antigen
# Experiment description: ELISA, 1 ug/ml antibody

Binder: anti-MS4A4A antibody 4A-309 (antibody, human IgG1, V domains shown, human IgG1/kappa) VH: QVQLVQSGAEVKKPGASVKVSCKASGYTFTNYWMQWVRQAPGQGLEWMGATHPGHGDTRYAQKFQGRVTLTADKSISTAYMELSRLRSDDTVVYYCAREEVYYGFRSYWYFDVWGRGTLVTVSS VL: EIVLTQSPATLSLSPGERATLSCRASESVDNYGVSFMNWYQQKPGQAPRLLIYGASNQGSGIPARFSGSGSGTDFTLTISSLEPEDFAVYYCQQSKEVPPTFGGGTKVEIK
OD450: 0.115
--
Binder: anti-MS4A4A antibody 4A-335 (antibody, human IgG1, V domains shown, humanized 4A-21; human IgG1/kappa) VH: QVQLVQSGSELKKPGASVKVSCKASGYIFTSYGLSWVRQAPGQGLEWMGWINTYSGVPTYAQGFTGRFVFSLDTSVSTAYLQISSLKAEDTAVYYCARSLVDYWGQGTLVTVSS VL: DVVMTQTPLSSPVTLGQPASISCKSSQSLLYSDGKTYLSWLQQRPGQPPRLLIYLVSKLDSGVPDRFSGSGAGTDFTLKISRVEAEDVGVYYCWQGIDFHQTFGGGTKVEIK
OD450: 1.66
--
Binder: anti-MS4A4A antibody 4A-311 (antibody, human IgG1, V domains shown, human IgG1/kappa) VH: EVQLVQSGAEVKKPGATVKISCKVSGYTFTNYWMQWVQQAPGKGLEWMGATHPGHGDTRYAEKFQGRVTITADKSTSTAYMELSSLRSEDTAVYYCAREEVYYGFRSYWYFDVWGRGTLVTVSS VL: DIVMTQSPDSLAVSLGERATINCRASESVDNYGVSFMNWYQQKPGQPPKLLIYGASNQGSGVPDRFSGSGSGTDFTLTISSLQAEDVAVYYCQQSKEVPPTFGGGTKVEIK
OD450: 0.122
